- experiment: Food effect dog study, plasma pharmacokinetics
- Assay type: in vivo, dogs (male Beagle)
- conditions: male, Beagle, dog, plasma, po, 60 mg/kg, fed; approx. 60 mg/kg oral tablets; plasma; three dogs; read-out: AUC geometric mean

chemical smiles	AUC [ng·h/mL]
Cn1cc(-c2ccc(S(=O)(=O)n3ccc(/C=C/C(=O)Nc4ccccc4N)c3)cc2)cn1	13900
